// data source = patent EP4725969A1

# ASSAY SYSTEM: T1, recombinant human HER2 extracellular domain protein (human, UniProt P04626 23-652)
# T1 construct: range 23-652; Range is printed for the immunogen/panning protein; also called ErbB2; recombinant HER2 protein
# METHOD DESCRIPTION: BLI, Protein A capture
Record form. Attribute: Kd. Fill in for each entry.
Numbers only, in nM.

Hu2126-H2K1-L71-H72b-Mu16 (antibody, IgG1, V domains shown, IgG1/Cκ; also called 7172b-Mu16) VH: QVQLVQSGSELKKPGASVKVSCKASGYTFTDYSMHWVRQAPGQGLEWMGWINTGTGEPTYADDFKGRFTISRDTSKSTAYLQISSLKAEDTAVYYCVRVGRYDYAMDYWGQGTTVTVSS VL: DIQMTQSPSSLSASVGDRVTITCRASQDVYTAVAWYQQKPGKAPKLLINRASSRPTGVPSRFSGSGSGTDFTLTISSLQPEDFATYYCQQYYSTPPTFGGGTKVEIK ... 5.77
Hu2126-H2K1-L71-H72b-Mu17 (antibody, IgG1, V domains shown, IgG1/Cκ; also called 7172b-Mu17) VH: QVQLVQSGSELKKPGASVKVSCKASGYTFTDYSMHWVRQAPGQGLEWMGWINTGTGEPTYADDFKGRFTISRDTSKSTAYLQISSLKAEDTAVYYCVRVGRYDYAMDYWGQGTTVTVSS VL: DIQMTQSPSSLSASVGDRVTITCRASQDVYTAVAWYQQKPGKAPKLLINSASSRPTGVPSRFSGSGSGTDFTLTISSLQPEDFATYYCQQYYSTPPTFGGGTKVEIK ... 2.8
Hu2126-H2K1-L71-H72b-Mu10 (antibody, IgG1, V domains shown, IgG1/Cκ; also called 7172b-Mu10) VH: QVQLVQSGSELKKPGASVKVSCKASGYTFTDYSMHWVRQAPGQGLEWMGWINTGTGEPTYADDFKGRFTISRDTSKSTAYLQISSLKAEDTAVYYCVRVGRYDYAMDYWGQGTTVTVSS VL: DIQMTQSPSSLSASVGDRVTITCRASQDVYTAVAWYQQKPGKAPKLLINAASSRPTGVPSRFSGSGSGTDFTLTISSLQPEDFATYYCQQYYSTPPTFGGGTKVEIK ... 3.38
Hu2126-H2K1-L71-H72b-Mu19 (antibody, IgG1, V domains shown, IgG1/Cκ; also called 7172b-Mu19) VH: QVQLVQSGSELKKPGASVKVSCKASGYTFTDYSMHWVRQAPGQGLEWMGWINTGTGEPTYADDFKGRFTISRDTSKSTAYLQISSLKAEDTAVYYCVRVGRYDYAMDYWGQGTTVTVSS VL: DIQMTQSPSSLSASVGDRVTITCRASQDVYTAVAWYQQKPGKAPKLLINYASSRPTGVPSRFSGSGSGTDFTLTISSLQPEDFATYYCQQYYSTPPTFGGGTKVEIK ... 2.9

Moving on to the next binder.
Query :: I have this binder here, Hu2126-H2K1-L71-H72b-Mu12 (antibody, IgG1, V domains shown, IgG1/Cκ; also called 7172b-Mu12) VH: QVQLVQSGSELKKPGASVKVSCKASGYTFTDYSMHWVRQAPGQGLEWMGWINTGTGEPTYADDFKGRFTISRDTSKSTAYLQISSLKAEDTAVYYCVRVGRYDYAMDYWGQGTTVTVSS VL: DIQMTQSPSSLSASVGDRVTITCRASQDVYTAVAWYQQKPGKAPKLLINEASSRPTGVPSRFSGSGSGTDFTLTISSLQPEDFATYYCQQYYSTPPTFGGGTKVEIK , and I need its recorded Kd.
Result :: 6.74
